Hi there, I'd appreciate the recorded Mean % WT Binding for every entry that follows.
- test_system: human CD33 D107A (human, UniProt P20138 18-364)
- Sequence (P20138 18-364 D107A limits assumed): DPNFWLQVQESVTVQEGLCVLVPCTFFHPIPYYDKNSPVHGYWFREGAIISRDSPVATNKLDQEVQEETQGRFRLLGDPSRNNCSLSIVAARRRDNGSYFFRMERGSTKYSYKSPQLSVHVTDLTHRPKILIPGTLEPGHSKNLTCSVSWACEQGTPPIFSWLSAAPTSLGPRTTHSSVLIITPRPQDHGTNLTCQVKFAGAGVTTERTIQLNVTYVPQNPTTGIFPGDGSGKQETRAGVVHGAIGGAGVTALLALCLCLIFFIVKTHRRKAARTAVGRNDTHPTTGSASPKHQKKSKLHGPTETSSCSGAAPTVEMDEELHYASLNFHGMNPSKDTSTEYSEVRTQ
- procedure_text: flow cytometry on HEK293-T, alanine scan

Mean % WT Binding for Refmab #3 (antibody, V domains shown, The alanine scan used IgG or Fab) VH: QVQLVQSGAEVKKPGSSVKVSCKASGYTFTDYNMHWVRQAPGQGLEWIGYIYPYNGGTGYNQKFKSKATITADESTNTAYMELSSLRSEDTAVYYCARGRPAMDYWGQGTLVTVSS VL: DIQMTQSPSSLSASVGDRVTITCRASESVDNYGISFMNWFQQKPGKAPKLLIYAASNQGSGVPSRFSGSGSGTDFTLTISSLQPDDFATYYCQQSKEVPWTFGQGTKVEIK ?
92.5 % WT binding

Sample Refmab #2 (antibody, V domains shown, The alanine scan used IgG or Fab) VH: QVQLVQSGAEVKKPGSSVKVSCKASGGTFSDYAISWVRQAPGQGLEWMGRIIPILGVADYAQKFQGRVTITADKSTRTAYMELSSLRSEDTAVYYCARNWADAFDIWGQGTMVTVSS VL: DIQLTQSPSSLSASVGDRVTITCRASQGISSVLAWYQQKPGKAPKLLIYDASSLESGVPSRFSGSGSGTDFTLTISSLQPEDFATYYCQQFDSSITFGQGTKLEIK — what was its Mean % WT Binding?
109 % WT binding

What does the record list as Mean % WT Binding for Refmab #1 (antibody, V domains shown, The alanine scan used IgG or Fab; also called hP67.6) VH: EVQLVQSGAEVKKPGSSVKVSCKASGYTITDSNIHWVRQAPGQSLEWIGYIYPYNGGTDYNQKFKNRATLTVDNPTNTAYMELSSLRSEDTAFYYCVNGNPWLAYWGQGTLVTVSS VL: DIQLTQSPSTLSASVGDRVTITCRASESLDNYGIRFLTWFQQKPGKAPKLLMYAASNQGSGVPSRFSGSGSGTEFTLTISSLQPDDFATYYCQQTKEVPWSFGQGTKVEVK ?
87.7 % WT binding

Consider the binder Refmab #4 (antibody, V domains shown, The alanine scan used IgG or Fab) VH: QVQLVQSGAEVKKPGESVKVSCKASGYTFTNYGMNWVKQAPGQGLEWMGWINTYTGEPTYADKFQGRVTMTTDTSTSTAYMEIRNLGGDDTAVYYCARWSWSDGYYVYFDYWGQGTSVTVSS VL: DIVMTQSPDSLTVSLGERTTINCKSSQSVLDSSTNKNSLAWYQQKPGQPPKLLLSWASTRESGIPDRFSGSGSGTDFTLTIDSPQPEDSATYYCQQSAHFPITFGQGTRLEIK and give its measured Mean % WT Binding.
93 % WT binding
